Listed here: items and their measured cell viability.
# Tested on: P12-Ichikawa
# protocol.notes: cell viability relative to DMSO control; higher = less cytotoxic
# experimental.parameters: RPMI 5 mM glucose + 10% dialyzed FBS; 48 h; 0.00702 µM
The response must be a number in % with no trailing unit.

[[record]]
compound = "CCC[C@H](N[C@@H](C)C(=O)N1[C@H](C(=O)O)C[C@@H]2CCCC[C@@H]21)C(=O)OCC"
numeric_readout = 113


Give the reported cell viability for this compound. NC(CO)(CO)CCc1ccc(Sc2cccc(OCc3ccccc3)c2)cc1Cl
99.6

Answer with the recorded cell viability for the compound listed here: Clc1cc(Cl)cc(CNc2ncncc2-c2ccc3c(c2)OCO3)c1
102

Output measured cell viability for this item: CC1(C)OC2CC3C4CC(F)C/5=C/C(=O)/C=C\C5(C)C4C(O)CC3(C)[C@@]2(O1)C(=O)CO (stereo partly specified)
117

In one line, give reported cell viability of the entry CC(C)Oc1cc(Nc2nc(N[C@@H](C)c3ccc(F)cn3)ncc2Cl)n[nH]1 .
108

Supply cell viability value. Item: CC(=O)O[C@@]1(CC[C@H]2[C@@H]3\C=C(C)/C4=C/C(=O)CC[C@]4(C)[C@H]3CC[C@]12C)C(C)=O
101

Provide only the value of recorded cell viability for CC(=O)Nc1ccc([C@H](C)C(=O)Nc2ncc(C(C)C)s2)cc1
97.2

// fetch cell viability given entry O=C(/C=C/c1c(C(=O)[O-])[nH]c2cc(Cl)cc(Cl)c12)Nc1ccccc1
107

Output measured cell viability for this item: CCOC(=O)[C@H](CCc1ccccc1)N[C@@H](C)C(=O)N1CCC[C@H]1C(=O)O
106

Please give measured cell viability of the following entry: CN1\C(=C(\O)C2=C(C=CS2)[S+]1([O-])=O)C(=O)NC3=CC=CC=N3
116

Please list cell viability recorded for the compound CC(=O)C\1=C(/C)C2=CN=C(NC3=CC=C(C=N3)N4CCNCC4)N=C2N(C5CCCC5)C1=O
127

* * *

# Tested on: SEM cells
# protocol.notes: cell viability relative to DMSO control; higher = less cytotoxic
# experimental.parameters: RPMI 5 mM glucose + 10% FBS; 48 h; 0.000781 µM
reported.property: cell viability (%)
Give just the number in %; leave the unit off.

Some solved entries appear below for comparison.
[[record]]
compound = "O=C(Nc1cccc(Nc2ncc(Br)c(NCCc3cnc[nH]3)n2)c1)N1CCCC1"
reported_property = "cell viability"
unit_symbol = "%"
numeric_readout = 87.7

[[record]]
compound = "CC(=O)C\\1=C(/C)C2=CN=C(NC3=CC=C(C=N3)N4CCNCC4)N=C2N(C5CCCC5)C1=O"
reported_property = "cell viability"
unit_symbol = "%"
numeric_readout = 114

[[record]]
compound = "C[S+](=O)([O-])N(Cc1ccco1)CC(O)Cn1c2ccccc2c2ccccc21 (configuration not stated)"
reported_property = "cell viability"
unit_symbol = "%"
numeric_readout = 115

[[record]]
compound = "C[N+]1(C)[C@@H]2C[C@@H](OC(=O)[C@H](CO)c3ccccc3)C[C@H]1[C@@H]1O[C@@H]12.[Br-]"
reported_property = "cell viability"
unit_symbol = "%"
numeric_readout = 92.3

[[record]]
compound = "CCOC(=O)N1CCN(/[N+]([O-])=N/Oc2ccc([N+](=O)[O-])cc2[N+](=O)[O-])CC1"
reported_property = "cell viability"
unit_symbol = "%"
numeric_readout = 70.6

[[record]]
compound = "OC[C@H]1O[C@H]([C@@H](F)[C@@H]1O)N2\\C=C/C(=O)NC2=O"
reported_property = "cell viability"
unit_symbol = "%"
numeric_readout = 93.2


Output measured cell viability for this item: CCOc1cc(N)c(Cl)cc1C(=O)NCC1CN(Cc2ccc(F)cc2)CCO1 (configuration not stated)
99.8

Give a short answer stating reported cell viability for COc1cc2c(Nc3ccc(Cl)c(Cl)c3F)ncnc2cc1OC[C@@H]1C[C@@H]2CN(C)C[C@@H]2C1 .
98

Look up and report measured cell viability for this entry: CNC1[C@@H](O)C(O[C@@H]2C(O)C(O[C@H]3O[C@H]([C@@H](C)NC)CC[C@H]3N)[C@@H](N)C[C@H]2N)OC[C@]1(C)O (some centres not stated)
105

Identify measured cell viability associated with CC(=O)OCC(=O)[C@@]12\N=C(C)/O[C@@H]1C[C@H]3[C@@H]4CCC/5=C/C(=O)/C=C\[C@]5(C)[C@H]4[C@@H](O)C[C@]23C
86.6

In one line, give reported cell viability of the entry COc1cc(Nc2ncc(F)c(Nc3ccc4c(n3)NC(=O)C(C)(C)O4)n2)cc(OC)c1OC .
57.5

Please give measured cell viability of the following entry: CN1\C(=C(\O)C2=C(C=CS2)[S+]1([O-])=O)C(=O)NC3=CC=CC=N3
95
